The values you see were collected from ChEMBL document CHEMBL1777735.

Assay: 1-Octanol-water distribution coefficient, log D of the compound at pH 7.4 by shake-flask method
Assay type: physicochemical
Mark criterion met for reported logD of -0.3 or greater; mark criterion not met for anything smaller.

Answered examples (3):
O=C(O)CCCc1ccc(N(CCCl)CCCl)cc1
criterion met
CCCCNc1cc(C(=O)O)cc(S(N)(=O)=O)c1Oc1ccccc1 [BUMETANIDE]
criterion not met
Cc1nnc(NS(=O)(=O)c2ccc(N)cc2)s1
criterion not met

Task item: Does CCCCC1=NC2(CCCC2)C(=O)N1Cc1ccc(-c2ccccc2-c2nnn[nH]2)cc1 have a reported logD of at least -0.3?
Reply: criterion met

Task item: Then this molecule: Cc1cc(SCc2sc(-c3ccc(C(F)(F)F)cc3)nc2C)ccc1OCC(=O)O
Reply: criterion met
